All figures here come from ChEMBL document CHEMBL1154396.

target desc: Cytosolic phospholipase A2 (Homo sapiens)
Sequence (P47712 whole entry): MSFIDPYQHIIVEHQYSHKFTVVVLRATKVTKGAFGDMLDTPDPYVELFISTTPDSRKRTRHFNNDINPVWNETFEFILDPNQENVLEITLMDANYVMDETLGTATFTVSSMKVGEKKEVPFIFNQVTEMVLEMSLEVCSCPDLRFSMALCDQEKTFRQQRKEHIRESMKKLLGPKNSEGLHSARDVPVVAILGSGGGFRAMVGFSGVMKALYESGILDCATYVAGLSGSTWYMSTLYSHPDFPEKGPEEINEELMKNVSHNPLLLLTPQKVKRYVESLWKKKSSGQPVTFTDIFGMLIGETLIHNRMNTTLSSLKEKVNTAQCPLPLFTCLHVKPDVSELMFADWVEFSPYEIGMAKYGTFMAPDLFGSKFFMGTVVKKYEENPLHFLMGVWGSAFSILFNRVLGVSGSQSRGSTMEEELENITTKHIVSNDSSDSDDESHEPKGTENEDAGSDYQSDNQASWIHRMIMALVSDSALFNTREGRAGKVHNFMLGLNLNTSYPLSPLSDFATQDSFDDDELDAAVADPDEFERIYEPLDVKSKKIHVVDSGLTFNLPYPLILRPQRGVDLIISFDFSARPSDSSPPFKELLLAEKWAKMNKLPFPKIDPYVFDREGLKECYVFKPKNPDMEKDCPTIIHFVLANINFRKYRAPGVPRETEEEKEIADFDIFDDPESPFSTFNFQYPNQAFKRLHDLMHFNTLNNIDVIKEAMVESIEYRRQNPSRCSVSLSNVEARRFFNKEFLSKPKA
assay summary: Inhibition of cPLA2 in human platelets assessed as arachidonic acid release
pIC50: −log10 of the molar value.
Rule: True for pIC50 not less than 8, False for anything less.

cpd smiles	label value
CCCCCCCCc1ccc(OCC(=O)Cn2ncc3ccc(C(=O)O)cc32)cc1	False
CCCCCCCCc1ccc(OCC(=O)Cn2cnc3ccc(C(=O)O)cc32)cc1	False
CCCCCCCCc1ccc(OCC(=O)Cn2ncc3cc(C(=O)O)ccc32)cc1	True
CCCCCCCCc1ccc(OCC(=O)Cn2nnc3cc(C(=O)O)ccc32)cc1	False
CCCCCCCCc1ccc(OCC(=O)Cn2cnc3cc(C(=O)O)ccc32)cc1	False

* * *

Recorded Stability values for a group of compounds are listed next.
Test system: Liver microsomes
assay summary: Metabolic stability in rat liver microsomes
Format: ADME, Microsome

cpd smiles	Stability
CCCCCCCCc1ccc(OCC(=O)Cn2ncc3cc(C(=O)O)ccc32)cc1	64%
CCCCCCCCc1ccc(OCC(=O)Cn2nnc3ccc(C(=O)O)cc32)cc1	44%
CCCCCCCCc1ccc(OCC(=O)Cn2nnc3cc(C(=O)O)ccc32)cc1	43%
CCCCCCCCc1ccc(OCC(=O)Cn2cnc3ccc(C(=O)O)cc32)cc1	40%
CCCCCCCCc1ccc(OCC(=O)Cn2ccc3ccc(C(=O)O)cc32)cc1	39%
CCCCCCCCc1ccc(OCC(=O)Cn2cnc3cc(C(=O)O)ccc32)cc1	49%
CCCCCCCCc1ccc(OCC(=O)Cn2ncc3ccc(C(=O)O)cc32)cc1	36%

* * *

Here, each record is paired with measured solubility thermodynamic data.
assay summary: Thermodynamic solubility in sodium phosphate buffer at pH 7.4
Assay type: physicochemical

cpd smiles	result qualifier	solubility thermodynamic / µg/mL
CCCCCCCCc1ccc(OCC(=O)Cn2nnc3cc(C(=O)O)ccc32)cc1	<	1
CCCCCCCCc1ccc(OCC(=O)Cn2ncc3cc(C(=O)O)ccc32)cc1	<	1
CCCCCCCCc1ccc(OCC(=O)Cn2cnc3cc(C(=O)O)ccc32)cc1	=	22
CCCCCCCCc1ccc(OCC(=O)Cn2ncc3ccc(C(=O)O)cc32)cc1	=	5
CCCCCCCCc1ccc(OCC(=O)Cn2cnc3ccc(C(=O)O)cc32)cc1	=	7
CCCCCCCCc1ccc(OCC(=O)Cn2nnc3ccc(C(=O)O)cc32)cc1	=	2
CCCCCCCCc1ccc(OCC(=O)Cn2ccc3ccc(C(=O)O)cc32)cc1	<	1
